Measured MBC, listed per entry for reference.
System: C. albicans (ATCC CRM 10231)
Assay type: cell-based, Candida albicans
Where a SMILES comes first, the peptide text is derived from it.
MEASURED_ENDPOINT: MBC

[[record]]
molecule = "CC[C@H](C)[C@H](NC(=O)[C@@H](NC(=O)CN)C(C)C)C(=O)N[C@H](C(=O)N[C@@H](CCCCN)C(=O)N[C@H](C(=O)N[C@@H](CC(C)C)C(N)=O)[C@@H](C)O)[C@@H](C)CC [Peptide 7-tB2U-K] (H-GVIIKTL-NH2)"
measured_endpoint = "MBC"
result = ">512 µM"

[[record]]
molecule = "CC[C@H](C)[C@H](NC(=O)[C@@H](NC(=O)CN)C(C)C)C(=O)N[C@H](C(=O)N[C@@H](CCCCN)C(=O)N[C@H](C(=O)N[C@@H](CC(C)C)C(=O)N[C@@H](CCCCN)C(=O)NCC(=O)N[C@@H](C)C(=O)N[C@@H](C)C(=O)N[C@@H](CCCCN)C(=O)N[C@H](C(=O)N[C@H](C(N)=O)C(C)C)[C@@H](C)O)[C@@H](C)O)[C@@H](C)CC [Peptide 14-tB2U-K] (H-GVIIKTLKGAAKTV-NH2)"
measured_endpoint = "MBC"
result = ">512 µM"

[[record]]
molecule = "CC[C@H](C)[C@H](NC(=O)[C@@H](NC(=O)CN)C(C)C)C(=O)N[C@H](C(=O)N[C@@H](CCCCN)C(=O)N[C@@H](CCCCN)C(=O)N[C@@H](CC(C)C)C(=O)N[C@@H](CCCCN)C(=O)NCC(=O)N[C@@H](C)C(=O)N[C@@H](C)C(=O)N[C@@H](CCCCN)C(=O)N[C@@H](CCCCN)C(=O)N[C@H](C(=O)N[C@@H](C)C(=O)N[C@@H](C)C(=O)N[C@@H](CCCCN)C(=O)N[C@@H](CC(C)C)C(=O)N[C@@H](CC(C)C)C(N)=O)C(C)C)[C@@H](C)CC [tB2U-6K] (H-GVIIKKLKGAAKKVAAKLL-NH2)"
measured_endpoint = "MBC"
result = "256 µM"


----------
// reported MBC for each item listed
Tested on: MRSA (NCTC 12493)
Format: cell-based, Methicillin-resistant Staphylococcus aureus
Where a SMILES comes first, the peptide text is derived from it.
MEASURED_ENDPOINT: MBC

[[record]]
compound = "CC[C@H](C)[C@H](NC(=O)[C@@H](NC(=O)CN)C(C)C)C(=O)N[C@H](C(=O)N[C@@H](CCCCN)C(=O)N[C@H](C(=O)N[C@@H](CC(C)C)C(=O)N[C@@H](CCCCN)C(=O)NCC(=O)N[C@@H](C)C(=O)N[C@@H](C)C(=O)N[C@@H](CCCCN)C(=O)N[C@H](C(=O)N[C@H](C(=O)N[C@@H](C)C(=O)N[C@@H](C)C(=O)N[C@@H](CCCCN)C(=O)N[C@@H](CC(C)C)C(=O)N[C@@H](CC(C)C)C(N)=O)C(C)C)[C@@H](C)O)[C@@H](C)O)[C@@H](C)CC [tB2U-K] (H-GVIIKTLKGAAKTVAAKLL-NH2)"
result = "128 µM"

[[record]]
compound = "CC[C@H](C)[C@H](NC(=O)[C@@H](NC(=O)CN)C(C)C)C(=O)N[C@H](C(=O)N[C@@H](CCCCN)C(=O)N[C@H](C(=O)N[C@@H](CC(C)C)C(=O)N[C@@H](CCCCN)C(=O)NCC(=O)N[C@@H](C)C(=O)N[C@@H](C)C(=O)N[C@@H](CCCCN)C(=O)N[C@H](C(=O)N[C@H](C(N)=O)C(C)C)[C@@H](C)O)[C@@H](C)O)[C@@H](C)CC [Peptide 14-tB2U-K] (H-GVIIKTLKGAAKTV-NH2)"
result = ">512 µM"

[[record]]
compound = "CC[C@H](C)[C@H](NC(=O)[C@@H](NC(=O)CN)C(C)C)C(=O)N[C@H](C(=O)N[C@@H](CCCCN)C(=O)N[C@H](C(=O)N[C@@H](CC(C)C)C(N)=O)[C@@H](C)O)[C@@H](C)CC [Peptide 7-tB2U-K] (H-GVIIKTL-NH2)"
result = "> 512 µM"


----------
Tested on: P. aeruginosa (B004 V2S2 B)
Format: cell-based, Pseudomonas aeruginosa
Where a SMILES comes first, the peptide text is derived from it.
Reported MBC values for a set of compounds
MEASURED_ENDPOINT: MBC

[[record]]
compound = "CC[C@H](C)[C@H](NC(=O)[C@@H](NC(=O)CN)C(C)C)C(=O)N[C@H](C(=O)N[C@@H](CC(=O)O)C(=O)N[C@H](C(=O)N[C@@H](CC(C)C)C(=O)N[C@@H](CCCCN)C(=O)NCC(=O)N[C@@H](C)C(=O)N[C@@H](C)C(=O)N[C@@H](CCCCN)C(=O)N[C@H](C(=O)N[C@H](C(=O)N[C@@H](C)C(=O)N[C@@H](C)C(=O)N[C@@H](CCC(=O)O)C(=O)N[C@@H](CC(C)C)C(=O)N[C@@H](CC(C)C)C(N)=O)C(C)C)[C@@H](C)O)[C@@H](C)O)[C@@H](C)CC [tB2U-α] (H-GVIIDTLKGAAKTVAAELL-NH2)"
target_under_test = "P. aeruginosa (B004 V2S2 B)"
result = ">512 µM"

[[record]]
compound = "CC[C@H](C)[C@H](NC(=O)[C@@H](NC(=O)CN)C(C)C)C(=O)N[C@H](C(=O)N[C@@H](CCCCN)C(=O)N[C@H](C(=O)N[C@@H](CC(C)C)C(N)=O)[C@@H](C)O)[C@@H](C)CC [Peptide 7-tB2U-K] (H-GVIIKTL-NH2)"
target_under_test = "P. aeruginosa (B004 V2S2 B)"
result = ">512 µM"


----------
Measured MBC by item
System: P. aeruginosa (B004 V2S2 B)
Assay type: cell-based, Pseudomonas aeruginosa
Where a SMILES comes first, the peptide text is derived from it.
MEASURED_ENDPOINT: MBC

[[record]]
molecule = "CC[C@H](C)[C@H](NC(=O)[C@@H](NC(=O)CN)C(C)C)C(=O)N[C@H](C(=O)N[C@@H](CCCCN)C(=O)N[C@H](C(=O)N[C@@H](CC(C)C)C(=O)N[C@@H](CCCCN)C(=O)NCC(=O)N[C@@H](C)C(=O)N[C@@H](C)C(=O)N[C@@H](CCCCN)C(=O)N[C@H](C(=O)N[C@H](C(N)=O)C(C)C)[C@@H](C)O)[C@@H](C)O)[C@@H](C)CC [Peptide 14-tB2U-K] (H-GVIIKTLKGAAKTV-NH2)"
target_under_test = "P. aeruginosa (B004 V2S2 B)"
result = ">512 µM"

[[record]]
molecule = "CC[C@H](C)[C@H](NC(=O)[C@@H](NC(=O)CN)C(C)C)C(=O)N[C@H](C(=O)N[C@@H](CCCCN)C(=O)N[C@H](C(=O)N[C@@H](CC(C)C)C(=O)N[C@@H](CCCCN)C(=O)NCC(=O)N[C@@H](C)C(=O)N[C@@H](C)C(=O)N[C@@H](CCCCN)C(=O)N[C@H](C(=O)N[C@H](C(=O)N[C@@H](C)C(=O)N[C@@H](C)C(=O)N[C@@H](CCCCN)C(=O)N[C@@H](CC(C)C)C(=O)N[C@@H](CC(C)C)C(N)=O)C(C)C)[C@@H](C)O)[C@@H](C)O)[C@@H](C)CC [tB2U-K] (H-GVIIKTLKGAAKTVAAKLL-NH2)"
target_under_test = "P. aeruginosa (B004 V2S2 B)"
result = ">512 µM"

[[record]]
molecule = "CC[C@H](C)[C@H](NC(=O)[C@@H](NC(=O)CN)C(C)C)C(=O)N[C@H](C(=O)N[C@@H](CCCCN)C(=O)N[C@@H](CCCCN)C(=O)N[C@@H](CC(C)C)C(=O)N[C@@H](CCCCN)C(=O)NCC(=O)N[C@@H](C)C(=O)N[C@@H](C)C(=O)N[C@@H](CCCCN)C(=O)N[C@@H](CCCCN)C(=O)N[C@H](C(=O)N[C@@H](C)C(=O)N[C@@H](C)C(=O)N[C@@H](CCCCN)C(=O)N[C@@H](CC(C)C)C(=O)N[C@@H](CC(C)C)C(N)=O)C(C)C)[C@@H](C)CC [tB2U-6K] (H-GVIIKKLKGAAKKVAAKLL-NH2)"
target_under_test = "P. aeruginosa (B004 V2S2 B)"
result = "64 µM"


----------
System: horse red cells (defibrinated horse blood)
ASSAY_OVERVIEW: Haemolysis assay
Assay type: cell-based
CONDITION_SUMMARY: 2% (v/v) horse red cell suspension mixed 1:1 with peptide in PBS, 37 ℃ 2 h, absorbance 570 nm, 0.1% Triton X-100 positive control; nine replicates from three independent tests
Procedure: The haemolysis assay was conducted on defibrinated horse blood (TCS Biosciences Ltd., Buckingham, UK), which was washed by PBS in advance. […] After the incubation, 100 μL supernatant of each tube was aspirated into a new 96-well plate, and their absorbances were analysed by a microplate reader (EL808, Biolise BioTek Winooski, Minneapolis, USA) at a wavelength of 570 nm. […] A represents the absorbance of each well in the sample groups. […]
Where a SMILES comes first, the peptide text is derived from it.
Overview of recorded HC50 for various molecules
MEASURED_ENDPOINT: HC50

[[record]]
molecule = "CC[C@H](C)[C@H](NC(=O)[C@@H](NC(=O)CN)C(C)C)C(=O)N[C@H](C(=O)N[C@@H](CCCCN)C(=O)N[C@@H](CCCCN)C(=O)N[C@@H](CC(C)C)C(=O)N[C@@H](CCCCN)C(=O)NCC(=O)N[C@@H](C)C(=O)N[C@@H](C)C(=O)N[C@@H](CCCCN)C(=O)N[C@@H](CCCCN)C(=O)N[C@H](C(=O)N[C@@H](C)C(=O)N[C@@H](C)C(=O)N[C@@H](CCCCN)C(=O)N[C@@H](CC(C)C)C(=O)N[C@@H](CC(C)C)C(N)=O)C(C)C)[C@@H](C)CC [tB2U-6K] (H-GVIIKKLKGAAKKVAAKLL-NH2)"
result = "6506 µM"

[[record]]
molecule = "CC[C@H](C)[C@H](NC(=O)[C@@H](NC(=O)CN)C(C)C)C(=O)N[C@H](C(=O)N[C@@H](CC(=O)O)C(=O)N[C@H](C(=O)N[C@@H](CC(C)C)C(=O)N[C@@H](CCCCN)C(=O)NCC(=O)N[C@@H](C)C(=O)N[C@@H](C)C(=O)N[C@@H](CCCCN)C(=O)N[C@H](C(=O)N[C@H](C(=O)N[C@@H](C)C(=O)N[C@@H](C)C(=O)N[C@@H](CCC(=O)O)C(=O)N[C@@H](CC(C)C)C(=O)N[C@@H](CC(C)C)C(N)=O)C(C)C)[C@@H](C)O)[C@@H](C)O)[C@@H](C)CC [tB2U-α] (H-GVIIDTLKGAAKTVAAELL-NH2)"
result = "15,609 μM"

[[record]]
molecule = "CC[C@H](C)[C@H](NC(=O)[C@@H](NC(=O)CN)C(C)C)C(=O)N[C@H](C(=O)N[C@@H](CCCCN)C(=O)N[C@H](C(=O)N[C@@H](CC(C)C)C(=O)N[C@@H](CCCCN)C(=O)NCC(=O)N[C@@H](C)C(=O)N[C@@H](C)C(=O)N[C@@H](CCCCN)C(=O)N[C@H](C(=O)N[C@H](C(N)=O)C(C)C)[C@@H](C)O)[C@@H](C)O)[C@@H](C)CC [Peptide 14-tB2U-K] (H-GVIIKTLKGAAKTV-NH2)"
result = "10,834 μM"

